# Lookup of reported Kd keyed by entry
assay_system: T1, recombinant human domain 1-3His6 of the cation-independent mannose-6-phosphate receptor (human, UniProt P11717 41-467)
T1 construct: Biotinylated (NHS-PEG4-biotin) for BLI; Glycosylated; also called hDom1-3His6; hCI-M6PRD1-D3
measurement_notes: BLI at pH 7.4, 1st of 2 repeats
assay_readout: Kd (nM)

>>> recorded_value("anti-CI-M6PR VHH2 (VHH, His6-tagged; made in Pichia pastoris) VHH: QVQLQESGGGLVQPGGSLRLSCVFSGRTFMSYDVGWFRQAPGKERELLSSITSSSSSPYYAESVKGRFAVSRDGAKKTVYLRMNSLEPEDTAVYYCAARENWRNDWQYWGQTQVTVSS")
5.3
>>> recorded_value("anti-CI-M6PR VHH8 (VHH, His6-tagged (Pichia pastoris)) VHH: QVQLQESGGGLVQAGGSLRLSCEASGRTFNTYNWGWFRQAPGKEREFVAAIRWSSSKTSYADSVKGRFTISRDNAKNTIYLQMNSLKPEDTAVYYCAASIVDFTTNPSHFGSWGQGTQVTVSS")
1.69
>>> recorded_value("anti-CI-M6PR VHH5 (VHH, His6-tagged; made in Pichia pastoris, later also in E. coli WK6) VHH: QVQLQESGGGLVQAGGSLKLSCAAAGRTFSRLAMGWFRQAPGKEREFVAAISENGDSIHYSDSVKGRFAVSRDNAKNTVYLQMNSLKPEDTAIYYCAADRAAYYCSGSGCYPSRAPAAASYDYWGQGTQVTVSS")
0.0903
